tested on: MDA-MB-231; experiment: Growth inhibition of human MDA-MB-231 cells by neutral red assay; assay type: functional, cell-based
pIC50: −log10 of the molar value.
REPORTED_ENDPOINT: pIC50

In [3]: df
Out[3]:
                                   compound  reported_endpoint  test_result
0  CCC1(O)C(=O)OCc2c1cc1n(c2=O)Cc2cc3ccccc3nc2-1 (single isomer, unassigned)              pIC50         6.54
